// data source = PubChem BioAssay AID2060348

Tested on: 885724-159-R-J1-PDC spheroids viability;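 also: spheroids exposed to drugs for seven days; 100% = DMSO vehicle control viability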
Test: Anticancer human tumor 885724-159-R-J1-PDC patient-derived pancreatic adenocarcinoma cell line growth inhibition [TAK]
Conditions: second compound 30 µM; first compound 0.1 µM; stronger effect = lower value; spheroids with HUVEC and MSC
# Lookup of reported viability, T/C keyed by entry
recorded endpoint: viability, T/C (%)

[[record]]
compound = "CC(C)(C)c1nc(-c2cccc(NS(=O)(=O)c3c(F)cccc3F)c2F)c(-c2ccnc(N)n2)s1 + CC(C)NCC(C(=O)N1CCN(c2ncnc3c2C(C)CC3O)CC1)c1ccc(Cl)cc1"
numeric_value = 41.3

[[record]]
compound = "COc1c(OCCCN2CCOCC2)ccc2c3n(c(=NC(=O)c4cnc(N)nc4)nc12)CCN3 + CC(C)NCC(C(=O)N1CCN(c2ncnc3c2C(C)CC3O)CC1)c1ccc(Cl)cc1"
numeric_value = 9.29

[[record]]
compound = "CC(C)CC(NC(=O)CNC(=O)c1cc(Cl)ccc1Cl)B1OC(=O)CC(CC(=O)O)(C(=O)O)O1 (stereo unspecified) + CC(C)NCC(C(=O)N1CCN(c2ncnc3c2C(C)CC3O)CC1)c1ccc(Cl)cc1"
numeric_value = 0.71

[[record]]
compound = "Cc1nc(NC(=O)N2CCCC2C(N)=O)sc1-c1ccnc(C(C)(C)C(F)(F)F)c1 (stereo unspecified) + CC(C)NCC(C(=O)N1CCN(c2ncnc3c2C(C)CC3O)CC1)c1ccc(Cl)cc1"
numeric_value = 26.4

[[record]]
compound = "COC1CC2CCC(C)C(O)(O2)C(=O)C(=O)N2CCCCC2C(=O)OC(C(C)CC2CCC(OCCO)C(OC)C2)CC(=O)C(C)C=C(C)C(O)C(OC)C(=O)C(C)CC(C)C=CC=CC=C1C (stereo unspecified) + CC(C)NCC(C(=O)N1CCN(c2ncnc3c2C(C)CC3O)CC1)c1ccc(Cl)cc1"
numeric_value = 25.5

[[record]]
compound = "CC(C)n1nc(-c2ccc3oc(N)nc3c2)c2c(N)ncnc21 + CC(C)NCC(C(=O)N1CCN(c2ncnc3c2C(C)CC3O)CC1)c1ccc(Cl)cc1"
numeric_value = 16.4

